Tested on: J774.A1
assay.method.text: Cytotoxicity against mouse J774A1 cells by trypan blue exclusion assay
Format: cell-based
experimental.endpoint: IC50

>>> assay_result("O=C1C=C[C@]2(O[C@@H]3c4c2ccc(O)c4C(=O)[C@@H]2O[C@H]32)c2cccc(O)c21 [URNUCRATIN A]")
"> 100 µM"
>>> assay_result("COc1cccc2c1C(=O)C=C[C@]21O[C@@H]2c3c1ccc(O)c3[C@H](O)[C@@H]1O[C@@H]12 [URNUCRATIN C]")
"> 100 µM"
>>> assay_result("COc1cccc2c1C(=O)C=C[C@]21O[C@@H]2c3c1ccc(O)c3C(=O)[C@@H]1O[C@H]21 [URNUCRATIN B]")
"> 100 µM"
>>> assay_result("COc1ccc(C[C@H](N)C(=O)N[C@H]2[C@@H](O)[C@H](n3cnc4c(N(C)C)ncnc43)O[C@@H]2CO)cc1 [PUROMYCIN]")
"10 µM"
